This section presents pKd values reported for Epidermal growth factor receptor (Homo sapiens, UniProt P00533) in the literature.
pKd: −log10 of the molar value.
Assay Metric: pKd

# Structure As Smiles, pKd
measured = [
    ("C#Cc1cccc(Nc2ncnc3cc(OC)c(OC)cc23)c1", 9.26),
]

P: C[C@@H]1CN(C2COC2)CCN1c1ccc(Nc2cc(-c3ccnc(N4CCn5c(cc6c5CC(C)(C)C6)C4=O)c3CO)cn(C)c2=O)nc1
Q: CCC(=O)Nc1cccc(N2C(=O)N(C)Cc3cnc(Nc4ccc(N5CCN(C)CC5)cc4OC)nc32)c1
R: C=CC(=O)Nc1cccc(-n2c(=O)c(-c3ccccc3)c(C)c3cnc(Nc4ccc(N5CCN(C)CC5)cc4OC)nc32)c1
S: C=CC(=O)Nc1cccc(-n2c(=O)cc(C)c3cnc(Nc4ccc(N5CCN(C)CC5)cc4OC)nc32)c1
T: CCC(=O)Nc1cccc(Oc2nc(Nc3ccc(N4CCN(C)CC4)cc3OC)ncc2Cl)c1
Problem: Arrange the 5 compounds from largest to smallest pKd. API: response body holds the labels in the requested order.
Solution: R, S, Q, T, P
